Values from PubChem BioAssay

test system: TRPC4 beta (transient receptor potential cation channel C4), mouse; assay: TRPC4 cation channel opening, retest – cell-based, Fluo4 calcium, HEK293 TRPC4beta/mu-opioid, duplicates, 10 µM, confirmation (AID 2426); conditions: Fluo4 calcium fluorescence, at 10 µM
Calls of active or inactive are those of the source.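 How the source made its calls: active means fluorescence ratio normalized to control raised more than 50% in primary screen plus both repeat runs; inactive means the rest.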
Pick from active, inactive when you respond.

Worked set:
- compound: "O=C(CN1CCCCC1)N1c2ccccc2Oc2ccccc21"
  assignedLabel: "inactive"
- compound: "COc1cccc(C(=O)Oc2ccc(/C=N/Nc3ccc(C(=O)O)cc3)cc2OC)c1"
  assignedLabel: "inactive"
- compound: "CC(CCc1ccc(O)cc1)N(C)CCc1ccccc1 (stereo unspecified)"
  assignedLabel: "inactive"
- compound: "Cn1c(N2CCC(C(N)=O)CC2)nc2c1c(=O)n(Cc1ccc(Br)cc1)c(=O)n2C"
  assignedLabel: "inactive"
- compound: "COC(=O)c1cccc(Nc2c3c(nc4ccccc24)CCC3)c1"
  assignedLabel: "inactive"

Consider the record given below.
## Input Answer briefly: the call reported for CN1CCN(Cc2nc3c(c(=O)[nH]c(=O)n3C)n2Cc2c(F)cccc2Cl)CC1 in this assay.
## Output active
